# ASSAY_NAME: Cytotoxicity against theophylline-stimulated mouse B16-4A5 cells assessed as cell viability at 0.3 uM after 72 hrs by MTT assay relative to control
# Format: toxicity
# PROTOCOL_CONDITIONS: theophylline-stimulated B16-4A5 cells, read-out: Activity
ENDPOINT: viability at 72 h, 0.3 µM
Form entry: enter the amount, then its unit.

Lab note: measured viability at 72 h, 0.3 µM of C=CC(OC(C)=O)c1ccc(OC(C)=O)cc1 (racemic) was 102%

Lab note: measured viability at 72 h, 0.3 µM of C=CC(OC/C=C/c1ccc(OC(C)=O)cc1)c1ccc(OC(C)=O)cc1 (racemic) was 105%

Lab note: measured viability at 72 h, 0.3 µM of C=C[C@H](OC(C)=O)c1ccc(OC(C)=O)c(OC)c1 was 92%
